Molecular target: TNFα (Homo sapiens)
Sequence (P01375 77-233 limits assumed): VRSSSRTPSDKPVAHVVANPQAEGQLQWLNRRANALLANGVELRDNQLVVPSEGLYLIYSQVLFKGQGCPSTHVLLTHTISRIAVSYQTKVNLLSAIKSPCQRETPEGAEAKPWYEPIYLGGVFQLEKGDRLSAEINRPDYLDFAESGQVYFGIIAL
Assay: TNF-Induced HEK-Blue Assay
Assay type: cell-based
Details: HEK-Blue-CD40L cells, NF-kB-driven secreted alkaline phosphatase reporter; TNFα 0.5 ng/ml; 18 h; read-out: TNF induced HEK-Blue assay IC50 value
pIC50: −log10 of the molar value. Positions of bridges follow the written chain, without caps; N, C: chain ends. Non-standard residues stand in square brackets, D forms with d. Residues, ends and D or L forms follow the SMILES beside them. Bip(4'-CONHMe) = CNC(=O)c1ccc(-c2ccc(C[C@H](N)C(=O)O)cc2)cc1; Bip(4'-COOH) = N[C@@H](Cc1ccc(-c2ccc(C(=O)O)cc2)cc1)C(=O)O; Bip(4'-NHAc) = CC(=O)Nc1ccc(-c2ccc(C[C@H](N)C(=O)O)cc2)cc1; Ala(morpholin-4-yl) = N[C@@H](CN1CCOCC1)C(=O)O; Bip = N[C@@H](Cc1ccc(-c2ccccc2)cc1)C(=O)O; Val(3-OH) = CC(C)(O)[C@H](N)C(=O)O; 2Pal = N[C@@H](Cc1ccccn1)C(=O)O; 2Thi = N[C@@H](Cc1cccs1)C(=O)O; Cha = N[C@@H](CC1CCCCC1)C(=O)O; Tle = CC(C)(C)[C@H](N)C(=O)O; Sar = CNCC(=O)O

{"molecule": "CC(C)C[C@@H]1NC(=O)[C@H](Cc2ccc(O)cc2)NC(=O)[C@H](C(C)C)NC(=O)CN(C)C(=O)[C@H](C(C)C)NC(=O)[C@H](CCCNC(=N)N)NC(=O)[C@H](CC(=O)O)NC(=O)[C@@H]2CCCN2C(=O)CN(C)C(=O)[C@H](Cc2ccc(-c3ccccc3)cc2)NC(=O)[C@H](Cc2ccc(-c3ccccc3)cc2)NC(=O)[C@H](C(C)(C)O)NC(=O)CSC[C@@H](C(=O)NCC(N)=O)NC1=O [Example 141] ({CH2CO}-[Val(3-OH)][Bip][Bip][Sar]PDRV[Sar]VYLCG-NH2; thioether N-13)", "pIC50": "6.70 to 7.30"}
{"molecule": "CC(=O)Nc1ccc(-c2ccc(C[C@@H]3NC(=O)[C@H](Cc4ccc(-c5ccccc5)cc4)NC(=O)[C@H](CN4CCOCC4)NC(=O)CSC[C@@H](C(=O)NCC(N)=O)NC(=O)[C@H](CC(C)C)NC(=O)[C@H](Cc4ccc(O)cc4)NC(=O)[C@H](C(C)C)NC(=O)[C@@H]4CCCN4C(=O)[C@H](C(C)C)NC(=O)[C@H](CCCNC(=N)N)NC(=O)[C@H](CC(=O)O)NC(=O)[C@@H]4CCCN4C(=O)CN(C)C3=O)cc2)cc1 [Example 196] ({CH2CO}-[Ala(morpholin-4-yl)][Bip][Bip(4'-NHAc)][Sar]PDRVPVYLCG-NH2; thioether N-13)", "pIC50": "> 7.30"}
{"molecule": "CC(C)C[C@@H]1NC(=O)[C@H](Cc2ccc(O)cc2)NC(=O)[C@H](C(C)C)NC(=O)[C@@H]2CCCN2C(=O)[C@H](C(C)C)NC(=O)[C@H](CCCNC(=N)N)NC(=O)[C@H](CC(=O)O)NC(=O)[C@@H]2CCCN2C(=O)CN(C)C(=O)[C@H](Cc2ccc(-c3ccccc3)cc2)NC(=O)[C@H](Cc2ccc(-c3ccccc3)cc2)NC(=O)[C@H](C(C)(C)O)NC(=O)CSC[C@@H](C(=O)NCC(N)=O)NC1=O [Example 64] ({CH2CO}-[Val(3-OH)][Bip][Bip][Sar]PDRVPVYLCG-NH2; thioether N-13)", "pIC50": "5.70 to 6.70"}
{"molecule": "CC(=O)Nc1ccc(-c2ccc(C[C@@H]3NC(=O)[C@H](Cc4ccc(-c5ccccc5)cc4)NC(=O)[C@H](CC4CCCCC4)NC(=O)CSC[C@@H](C(=O)NCC(N)=O)NC(=O)[C@H](CC(C)C)NC(=O)[C@H](Cc4cccs4)NC(=O)[C@H](C(C)C)NC(=O)[C@@H]4CCCN4C(=O)[C@H](C(C)C)NC(=O)[C@@H](CCCNC(=N)N)NC(=O)[C@H](CC(=O)O)NC(=O)[C@H](Cc4ccccn4)NC(=O)CN(C)C3=O)cc2)cc1 [Example 235] ({CH2CO}-[Cha][Bip][Bip(4'-NHAc)][Sar][2Pal]D[dR]VPV[2Thi]LCG-NH2; thioether N-13)", "pIC50": "5.70 to 6.70"}
{"molecule": "CC[C@H](C)[C@@H]1NC(=O)[C@@H](CCCNC(=N)N)NC(=O)[C@H](CC(=O)O)NC(=O)[C@H](Cc2ccc(O)cc2)NC(=O)CN(C)C(=O)[C@H](Cc2ccc(-c3ccc(NC(C)=O)cc3)cc2)NC(=O)[C@H](Cc2ccc(-c3ccccc3)cc2)NC(=O)[C@H](C(C)(C)C)NC(=O)CSC[C@@H](C(=O)NCC(N)=O)NC(=O)[C@H](CC(C)C)NC(=O)[C@H](Cc2ccccc2)NC(=O)[C@H](C(C)C)NC(=O)[C@@H]2CCCN2C1=O [Example 264] ({CH2CO}-[Tle][Bip][Bip(4'-NHAc)][Sar]YD[dR]IPVFLCG-NH2; thioether N-13)", "pIC50": "6.70 to 7.30"}
{"molecule": "CC(=O)Nc1ccc(-c2ccc(C[C@@H]3NC(=O)[C@H](Cc4ccc(-c5ccc(C(=O)O)cc5)cc4)NC(=O)[C@H](C(C)(C)C)NC(=O)CSC[C@@H](C(=O)NCC(N)=O)NC(=O)[C@H](CC(C)C)NC(=O)[C@H](Cc4ccc(O)cc4)NC(=O)[C@H](C(C)C)NC(=O)[C@@H]4CCCN4C(=O)[C@H](C(C)C)NC(=O)[C@@H](CCCNC(=N)N)NC(=O)[C@H](CC(=O)O)NC(=O)[C@@H]4CCCN4C(=O)CN(C)C3=O)cc2)cc1 [Example 265] ({CH2CO}-[Tle][Bip(4'-COOH)][Bip(4'-NHAc)][Sar]PD[dR]VPVYLCG-NH2; thioether N-13)", "pIC50": "6.70 to 7.30"}
{"molecule": "CC[C@H](C)[C@@H]1NC(=O)[C@@H](CCCNC(=N)N)NC(=O)[C@H](CC(=O)O)NC(=O)[C@H](Cc2cnc[nH]2)NC(=O)CN(C)C(=O)[C@H](Cc2ccc(-c3ccccc3)cc2)NC(=O)[C@H](Cc2ccc(-c3ccc(C(=O)NC)cc3)cc2)NC(=O)[C@H](CC2CCCCC2)NC(=O)CSC[C@@H](C(=O)NCC(N)=O)NC(=O)[C@H](CC(C)C)NC(=O)[C@H](Cc2cnc[nH]2)NC(=O)[C@H](C(C)C)NC(=O)[C@@H]2CCCN2C1=O [Example 397] ({CH2CO}-[Cha][Bip(4'-CONHMe)][Bip][Sar]HD[dR]IPVHLCG-NH2; thioether N-13)", "pIC50": "6.70 to 7.30"}
{"molecule": "CC(C)C[C@@H]1NC(=O)[C@H](CCCNC(=N)N)NC(=O)[C@H](Cc2ccccc2)NC(=O)[C@@H]2CCCN2C(=O)[C@H](C(C)C)NC(=O)[C@@H](CCCNC(=N)N)NC(=O)[C@H](CC(=O)O)NC(=O)[C@@H]2CCCN2C(=O)CN(C)C(=O)[C@H](Cc2ccc(-c3ccccc3)cc2)NC(=O)[C@H](Cc2ccc(-c3ccccc3)cc2)NC(=O)[C@H](CN2CCOCC2)NC(=O)CSC[C@@H](C(=O)NCC(N)=O)NC1=O [Example 104] ({CH2CO}-[Ala(morpholin-4-yl)][Bip][Bip][Sar]PD[dR]VPFRLCG-NH2; thioether N-13)", "pIC50": "5.70 to 6.70"}

----------
Molecular target: TNFα (Homo sapiens)
Assay: TNF-Induced HEK-Blue Assay
Type: cell-based
Conditions: HEK-Blue-CD40L cells, NF-kB-driven secreted alkaline phosphatase reporter; TNFα 0.5 ng/ml; 18 h; read-out: TNF induced HEK-Blue assay IC50 value
Positions of bridges follow the written chain, without caps; N, C: chain ends. Non-standard residues stand in square brackets, D forms with d. Residues, ends and D or L forms follow the SMILES beside them. Bip = N[C@@H](Cc1ccc(-c2ccccc2)cc1)C(=O)O; Pro(cis-4-F) = O=C(O)[C@@H]1C[C@H](F)CN1; Sar = CNCC(=O)O

{"compound": "CC(C)C[C@@H]1NC(=O)[C@H](CCCNC(=N)N)NC(=O)[C@H](C(C)C)NC(=O)[C@@H]2C[C@H](F)CN2C(=O)[C@H](C(C)C)NC(=O)[C@H](CCCNC(=N)N)NC(=O)[C@H](CC(=O)O)NC(=O)[C@@H]2CCCN2C(=O)CN(C)C(=O)[C@H](Cc2ccc(-c3ccccc3)cc2)NC(=O)[C@H](Cc2ccc(-c3ccccc3)cc2)NC(=O)[C@H](Cc2ccccc2)NC(=O)CSC[C@@H](C(=O)NCC(N)=O)NC1=O [Example 43] ({CH2CO}-F[Bip][Bip][Sar]PDRV[Pro(cis-4-F)]VRLCG-NH2; thioether N-13)", "IC50": "200 to 2000 nM"}
